pIC50: −log10 of the molar value.
Record set of pIC50 for target or system TTK (Homo sapiens, UniProt P33981).

Use the examples below as a reference point.
compound	subject.of.test	pIC50
COc1cc(Nc2nc(NC3CCCC3)c3c(C#N)c[nH]c3n2)ccc1-c1ccnn1C [Example 120]	TTK (Homo sapiens, UniProt P33981)	6.70 to 7.30
Cn1nccc1-c1ccc(Nc2nc(NC3CCOCC3)c3c(C#N)c[nH]c3n2)c2c1OCCO2 [Example 40]	TTK (Homo sapiens, UniProt P33981)	> 7.30
Cn1nccc1-c1ccc(Nc2nc(NC3CCOC(C)(C)C3)c3c(C(F)(F)F)c[nH]c3n2)c2c1OCCO2 (centres unmarked) [Example 172]	TTK (Homo sapiens, UniProt P33981)	> 7.30
COc1cc(-c2c(C)noc2C)c(F)cc1Nc1nc(NC2CCOCC2)c2c(C#N)c[nH]c2n1 [Example 102]	TTK (Homo sapiens, UniProt P33981)	6.00 to 6.70
CCCCNc1nc(Nc2ccc(-c3nncn3C)cc2OCC)nc2[nH]cc(C#N)c12 [Example 11]	TTK (Homo sapiens, UniProt P33981)	> 7.30

// assay TTK (Homo sapiens, UniProt P33981), entry Cn1nccc1-c1ccc(Nc2nc(NC3CCCCC3)c3c(C#N)c[nH]c3n2)c2c1OCCO2 [Example 39] , pIC50 value = > 7.30

// returns pIC50 for CCOc1cc(-c2nncn2C)ccc1Nc1nc(NCCS(C)(=O)=O)c2c(C#N)c[nH]c2n1 [Example 14] with TTK (Homo sapiens, UniProt P33981); value = > 7.30

Value (pIC50, TTK (Homo sapiens, UniProt P33981)) for record COc1cc(-c2ccnn2C)c(C)cc1Nc1nc(NC2CCCC2)c2c(C#N)c[nH]c2n1 [Example 35] = 6.00 to 6.70

====

Biological target: TTK (Homo sapiens, UniProt P33981)
Sequence (P33981 1-857): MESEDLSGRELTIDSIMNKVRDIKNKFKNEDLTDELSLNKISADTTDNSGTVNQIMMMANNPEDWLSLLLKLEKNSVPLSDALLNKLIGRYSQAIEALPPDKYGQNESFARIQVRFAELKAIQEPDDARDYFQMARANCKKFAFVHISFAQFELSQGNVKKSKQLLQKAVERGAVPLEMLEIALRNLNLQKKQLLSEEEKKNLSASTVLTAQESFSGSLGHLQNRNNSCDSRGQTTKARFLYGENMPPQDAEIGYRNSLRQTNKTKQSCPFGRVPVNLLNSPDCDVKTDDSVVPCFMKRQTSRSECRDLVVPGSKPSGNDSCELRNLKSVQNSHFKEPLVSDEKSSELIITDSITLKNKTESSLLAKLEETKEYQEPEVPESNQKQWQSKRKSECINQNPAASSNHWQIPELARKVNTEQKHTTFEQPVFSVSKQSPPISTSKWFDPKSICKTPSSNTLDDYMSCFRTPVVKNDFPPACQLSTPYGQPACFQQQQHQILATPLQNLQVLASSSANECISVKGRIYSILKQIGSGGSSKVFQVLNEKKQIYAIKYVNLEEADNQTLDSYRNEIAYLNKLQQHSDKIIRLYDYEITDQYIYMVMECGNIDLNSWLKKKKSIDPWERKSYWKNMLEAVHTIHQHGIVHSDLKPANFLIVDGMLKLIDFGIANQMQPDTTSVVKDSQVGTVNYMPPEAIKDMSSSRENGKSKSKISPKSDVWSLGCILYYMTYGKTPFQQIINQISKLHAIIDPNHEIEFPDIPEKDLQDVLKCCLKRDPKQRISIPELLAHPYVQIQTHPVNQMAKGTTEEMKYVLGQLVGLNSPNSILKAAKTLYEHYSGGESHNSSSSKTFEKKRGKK
Measured IC50 of individual entries

compound	subject.of.test	IC50
CNc1nc(Nc2ccc(-c3ccnn3C)cc2OC)nc2[nH]cc(C#N)c12 [Example 9]	TTK (Homo sapiens, UniProt P33981)	< 0.05 µM
Cn1nccc1-c1ccc(Nc2nc(NC3CCCC3)c3c(C#N)c[nH]c3n2)c2c1CCO2 [Example 33]	TTK (Homo sapiens, UniProt P33981)	0.05 to 0.2 µM
Cn1nccc1-c1ccc(Nc2nc(NC3CCCC3)c3c(C#N)c[nH]c3n2)c2c1OCCO2 [Example 38]	TTK (Homo sapiens, UniProt P33981)	< 0.05 µM
COCCNc1nc(Nc2ccc(-c3ccnn3C)cc2OC)nc2[nH]cc(C#N)c12 [Example 13]	TTK (Homo sapiens, UniProt P33981)	< 0.05 µM
C=CC(=O)Nc1cc(-c2ccnn2C)ccc1Nc1nc(NC2CCCC2)c2c(C#N)c[nH]c2n1 [Example 142]	TTK (Homo sapiens, UniProt P33981)	< 0.05 µM

Field IC50 (TTK (Homo sapiens, UniProt P33981)), entry C[C@@H](Oc1cc(C(=O)N(C)C)ccc1Nc1nc(O[C@H]2CC[C@@](C)(O)CC2)c2c(Cl)c[nH]c2n1)C(F)(F)F [Example 86] : < 0.05 µM

Query COc1cc(-c2ccnn2C)ccc1Nc1nc(NC2CCOCC2)c2c(C(F)(F)F)c[nH]c2n1 [Example 106] on TTK (Homo sapiens, UniProt P33981); IC50 returned: 0.05 to 0.2 µM

Form field, IC50 with TTK (Homo sapiens, UniProt P33981), item COc1cc(-c2ncnn2C)ccc1Nc1nc(NC2CCCCC2)c2c(C#N)c[nH]c2n1 [Example 26] : 0.05 to 0.2 µM

====

System: A549
Assay: Cell proliferation inhibition, carcinomas other than TNBC
Format: cell-based
Details: Homo sapiens
test.readout: GI50

Worked examples, 3 molecules total:
item.smiles	subject.of.test	GI50
COc1cc(N2CCCC2=O)ccc1Nc1cc(NC2CCCCC2)c2c(C#N)c[nH]c2n1	A549	< 100 nM
COc1cc(N2CCCC2=O)ccc1Nc1nc(NC2CCCCC2)c2c(C(F)(F)F)c[nH]c2n1	A549	100 to 1000 nM
COc1cc(N2CCCC2=O)ccc1Nc1nc(NC2CCCC2)c2c(C#N)c[nH]c2n1	A549	< 100 nM

The reported value for "COc1cc(N2CCCC2=O)ccc1Nc1nc(NC2CCCCC2)c2c(C#N)c[nH]c2n1" in terms of GI50 is < 100 nM

For "COc1cc(N2CCCC2=O)ccc1Nc1nc(NC2CCCC2)c2c(C(F)(F)F)c[nH]c2n1" the molecule record lists GI50 as 100 to 1000 nM

GI50 reported for this molecule "COc1cc(N2CCCC2=O)ccc1Nc1cc(NC2CCCC2)c2c(C#N)c[nH]c2n1" : < 100 nM

response.value for "COc1cc(N2CCCC2=O)ccc1Nc1nc(NC2CCCC2)c2cc[nH]c2n1" (field: GI50) = < 100 nM

The molecule listed as "CNc1nc(Nc2ccc(N3CCCC3=O)cc2OC)nc2[nH]cc(C#N)c12" shows GI50 equal to 100 to 1000 nM

In plain terms, "COc1cc(N2CCCC2=O)ccc1Nc1cc(NC2CCCCC2)c2c(C(F)(F)F)c[nH]c2n1" has a documented GI50 of 100 to 1000 nM

====

System: MDA-MB-231 cells
Test: Inhibition of proliferation of triple-negative breast cancer cells, CellTiter-Glo
Format: cell-based
Conditions: Homo sapiens, 120 h; MDA-MB-231, cultured for 5 days
test.readout: GI50

Known results for compounds:
compound	GI50
COc1cc(-c2ccnn2C)c(F)cc1Nc1nc(NC2CCOCC2)c2c(C#N)c[nH]c2n1	< 100 nM
COc1cc(N2CCCC2=O)ccc1Nc1nc(NC2CCCCC2)c2c(C(F)(F)F)c[nH]c2n1	100 to 1000 nM
COC[C@@H](C)Nc1nc(Nc2ccc(-c3cnn(C)c3)c3c2OCCO3)nc2[nH]cc(C#N)c12	< 100 nM
Cn1nccc1-c1ccc(Nc2nc(NC3CCCC3)c3c(Cl)c[nH]c3n2)c2c1OCCO2	100 to 1000 nM

// recorded GI50 for "COc1cc(Nc2nc(NC3CCCC3)c3c(C#N)c[nH]c3n2)ccc1-c1cnn(C)c1" : < 100 nM

Per the records, this compound ( COc1cc(-c2ccnn2C)ccc1Nc1nc(NC2CCC(F)(F)C2)c2c(C#N)c[nH]c2n1 (centres unmarked) ) has GI50 equal to < 100 nM

GI50 for "COCCNc1nc(Nc2ccc(-c3cnn(C)c3)cc2OC)nc2[nH]cc(C#N)c12" is < 100 nM

// GI50 value for "COc1cc(-c2cnn(C3CCOCC3)c2)ccc1Nc1nc(NC2CCCCC2)c2c(C#N)c[nH]c2n1" : < 100 nM

====

Each item that follows carries a reported pIC50.
Target: TTK (Homo sapiens)
Sequence (P33981 1-857): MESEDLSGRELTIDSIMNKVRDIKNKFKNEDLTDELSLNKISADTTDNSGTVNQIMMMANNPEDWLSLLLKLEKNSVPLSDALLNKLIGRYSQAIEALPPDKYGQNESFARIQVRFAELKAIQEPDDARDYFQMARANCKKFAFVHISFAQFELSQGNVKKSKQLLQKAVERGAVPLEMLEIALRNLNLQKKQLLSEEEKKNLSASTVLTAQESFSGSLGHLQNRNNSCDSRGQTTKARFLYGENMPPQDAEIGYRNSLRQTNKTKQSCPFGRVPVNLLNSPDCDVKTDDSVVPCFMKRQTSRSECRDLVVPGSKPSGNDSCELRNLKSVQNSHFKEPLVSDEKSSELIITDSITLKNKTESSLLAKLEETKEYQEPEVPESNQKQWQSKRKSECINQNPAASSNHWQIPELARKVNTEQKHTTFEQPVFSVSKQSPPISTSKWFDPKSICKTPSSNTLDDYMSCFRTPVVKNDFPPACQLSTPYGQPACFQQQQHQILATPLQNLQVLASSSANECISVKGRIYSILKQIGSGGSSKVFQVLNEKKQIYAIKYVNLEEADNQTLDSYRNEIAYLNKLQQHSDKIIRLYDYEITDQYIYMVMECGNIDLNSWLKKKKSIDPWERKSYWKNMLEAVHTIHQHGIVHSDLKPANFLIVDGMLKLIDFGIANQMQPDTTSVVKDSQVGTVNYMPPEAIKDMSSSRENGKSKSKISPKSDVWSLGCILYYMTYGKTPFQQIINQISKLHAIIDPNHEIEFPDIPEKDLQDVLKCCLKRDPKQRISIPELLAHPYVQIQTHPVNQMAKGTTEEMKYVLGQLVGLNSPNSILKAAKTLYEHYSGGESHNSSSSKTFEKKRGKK
pIC50: −log10 of the molar value.

compound	test.readout	endpoint.value
COc1cc(-c2ccnn2C)c(F)cc1Nc1nc(NC2CCOCC2)c2c(C#N)c[nH]c2n1	pIC50	> 7.30
Cn1nccc1-c1ccc(Nc2nc(NC3CCOCC3)c3c(C(F)(F)F)c[nH]c3n2)c2c1OCCO2	pIC50	6.70 to 7.30
CC1(C)CC(Nc2nc(Nc3cccc4c3OCCO4)nc3[nH]cc(C#N)c23)CCO1 (stereo not shown)	pIC50	> 7.30

# context switch: different compound, same pIC50
The observed pIC50 for "COc1cc(-n2ccnc2C)ccc1Nc1nc(NC2CCOCC2)c2c(C#N)c[nH]c2n1" when tested with TTK (Homo sapiens) stands at > 7.30

All values here come from patent US20230183243A1.
